- system: Phosphatidylinositol 4,5-bisphosphate 3-kinase catalytic subunit beta isoform (Homo sapiens)
- Sequence (P42338 whole entry, canonical isoform): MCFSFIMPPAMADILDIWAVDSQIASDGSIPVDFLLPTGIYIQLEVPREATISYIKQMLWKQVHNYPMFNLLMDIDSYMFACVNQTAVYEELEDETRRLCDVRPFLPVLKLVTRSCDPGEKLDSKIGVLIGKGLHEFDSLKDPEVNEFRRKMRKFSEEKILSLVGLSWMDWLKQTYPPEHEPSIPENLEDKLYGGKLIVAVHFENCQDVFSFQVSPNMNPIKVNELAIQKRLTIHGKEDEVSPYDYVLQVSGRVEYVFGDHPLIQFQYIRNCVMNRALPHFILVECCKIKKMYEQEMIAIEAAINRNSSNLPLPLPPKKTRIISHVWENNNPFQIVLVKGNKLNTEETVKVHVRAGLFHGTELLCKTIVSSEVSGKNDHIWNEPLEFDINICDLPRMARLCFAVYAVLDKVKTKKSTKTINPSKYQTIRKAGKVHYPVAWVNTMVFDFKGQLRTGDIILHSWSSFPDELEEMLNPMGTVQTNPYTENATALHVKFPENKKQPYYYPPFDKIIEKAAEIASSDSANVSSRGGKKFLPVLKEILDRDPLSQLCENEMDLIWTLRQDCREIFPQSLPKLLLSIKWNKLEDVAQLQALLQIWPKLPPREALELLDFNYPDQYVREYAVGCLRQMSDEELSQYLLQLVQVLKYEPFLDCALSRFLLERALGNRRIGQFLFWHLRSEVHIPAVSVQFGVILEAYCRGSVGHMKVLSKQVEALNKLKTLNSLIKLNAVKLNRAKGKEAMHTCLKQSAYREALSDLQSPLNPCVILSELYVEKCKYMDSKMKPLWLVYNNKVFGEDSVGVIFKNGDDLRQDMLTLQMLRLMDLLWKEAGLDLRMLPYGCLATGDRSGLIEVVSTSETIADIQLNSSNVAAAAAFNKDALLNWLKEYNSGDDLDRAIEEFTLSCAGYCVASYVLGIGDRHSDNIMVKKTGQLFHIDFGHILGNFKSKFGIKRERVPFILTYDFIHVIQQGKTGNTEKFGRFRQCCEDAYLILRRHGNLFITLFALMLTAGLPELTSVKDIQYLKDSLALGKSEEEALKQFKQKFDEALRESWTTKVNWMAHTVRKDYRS
- test-protocol: Inhibition of PI3Kbeta in human PTEN-deficient PC3 cells assessed as Akt phosphorylation at S473
- Type: cell-based, PC-3
readout-name: IC50 (nM)

Consider the reported IC50 for these compounds:
# compound, measurement-unit, IC50
records = [
    ("NC(=O)c1sc(N2CCOCC2)nc1CC(=O)N1CCc2c(Br)cccc21", "nM", 22),
    ("NC(=O)c1sc(N2CCOCC2)nc1CC(=O)N1CCc2ccccc21", "nM", 25),
]

P. CC1Cc2cc(F)ccc2N1C(=O)Cc1nc(N2CCOCC2)sc1C(=O)O (centres undefined)
Q. CC1Cc2ccccc2N1C(=O)Cc1nc(N2CCOCC2)sc1C(=O)O (racemic)
Kindly identify the item with the lower IC50 figure among these two: P and Q State the label of the item chosen.
P
(P: 817 nM, Q: 2310 nM)
